assay: log P by HPLC on reversed-phase column (C 18), EEC Directive 79/831 Annex V.A8; format: physicochemical; conditions: log P, neutral range; HPLC on reversed-phase column (C 18), 55° C.
LOGP_NEUTRAL: recorded values
Please respond with just the number, no unit label.

The cases that follow already have their LOGP_NEUTRAL on record.
> print(dat)
                                   compound  measurement
1  N#Cc1cc(F)c(CNC(=O)c2cc(-c3ccc(OC(F)(F)F)cc3)cc(NC(=O)C3CC3)n2)c(F)c1 [Example I-082]         4.01
2  Cn1ncc2cc(CNC(=O)c3cc(-c4ccc(OC(F)(F)F)cc4)cc(NC(=O)C4CC4)n3)cnc21 [Example I-114]         3.23

Give its LOGP_NEUTRAL value. Item: N#Cc1ccc(CNC(=O)c2cc(-c3ccc([S+]([O-])C(F)(F)F)cc3)cc(NC(=O)C3CC3)n2)cc1 (stereo not shown) [Example I-151]
3.50

What about N#Cc1ccc(CNC(=O)c2cc(-c3ccc(S(=O)(=O)C(F)(F)F)cc3)cc(NC(=O)C3CC3)n2)cc1 [Example I-096] ?
3.47

====

assay: log P by HPLC on reversed-phase column (C 18), EEC Directive 79/831 Annex V.A8; type: physicochemical; settings: reversed-phase HPLC column (C 18), pH 2.7, log P (HCOOH), acidic range at pH 2.7, 0.1% aqueous formic acid and acetonitrile; HPLC on reversed-phase column (C 18), 55° C.; read-out: LOGP_HCOOH
# chromatographic logP listing for each entry below
Answer with a bare number; do not write a unit.

> print(dat)
                                   compound     reported.endpoint  measurement
1  N#Cc1ccc(CNC(=O)c2cc(-c3ccc(C(F)(F)F)s3)cc(NC(=O)C3CC3)n2)cc1 [Example I-160]  chromatographic logP         3.68

Consider the additional compound presented here.
Using the record for N#Cc1ccc(CNC(=O)c2cc(-c3ccc(C(F)(F)F)nc3)cc(NC(=O)C3CC3)n2)cc1 [Example I-123] , report its chromatographic logP.
3.13

====

test: log P by HPLC on reversed-phase column (C 18), EEC Directive 79/831 Annex V.A8; assay type: physicochemical; settings: log P, neutral range; HPLC on reversed-phase column (C 18), 55° C.
Is LOGP_NEUTRAL at least 4? Then t. If not, f.

> print(dat)
                                   molecule  qualitative.label
1  O=C(NCc1ccc(C(F)(F)F)cc1F)c1cc(-c2ccc(C(F)(F)F)cc2)cc(NC(=O)C2CC2)n1 [Example I-054]                  t
2  N#Cc1ccc(CNC(=O)c2cc(-c3ccc(C(F)(F)F)cc3)cc(NC(=O)C3CC3)n2)cc1F [Example I-026]                  f

In plain terms: is recorded LOGP_NEUTRAL at least 4 for CC(C)C(=O)Nc1cc(-c2ccc(OC(F)(F)F)cc2)cc(C(=O)NC2(C#N)CC2)n1 [Example I-075] ?
f

Record: CC(C)(C)C(=O)Nc1cc(-c2ccc(OC(F)(F)F)cc2)cc(C(=O)NCc2ccc(C#N)cc2)n1 [Example I-206]
t

====

The compounds listed here are annotated with their efficacy (caterpillars killed).
test system: Spodoptera frugiperda; assay: Spodoptera frugiperda spray test; assay type: in vivo; conditions: application rate 500 g/ha, after 7 days, maize leaf discs
Answer format: numeric, % implied, no suffix.

> print(dat)
                                   compound  unit.text  measurement
1  O=C(NCC1CCC1)c1cc(-c2ccc(C(F)(F)F)cc2)cc(NC(=O)C2CC2)n1 [Example I-049]          %           83
2  N#Cc1ccc(CNC(=O)c2cc(-c3ccc(C(F)(F)F)cc3)cc(NC(=O)C3CC3)n2)cc1 [Example I-005]          %          100
3  COC1(NC(=O)c2cc(-c3ccc(OC(F)(F)F)cc3)cc(NC(=O)C3CC3)n2)CC1 [Example I-140]          %          100
4  O=C(NC1CC1(F)F)c1cc(-c2ccc(OC(F)(F)F)cc2)cc(NC(=O)C2CC2)n1 (stereo not shown) [Example I-216]          %          100

Can you look up the measured efficacy (caterpillars killed) of N#Cc1ccc(CNC(=O)c2cc(-c3cc(F)c(OC(F)F)c(F)c3)cc(NC(=O)C3CC3)n2)cc1 [Example I-155] for me?
100

Here is the next compound: CC(C)(C#N)NC(=O)c1cc(-c2ccc(OC(F)(F)F)cc2)cc(NC(=O)C2CC2)n1 [Example I-108]
83

Also N#Cc1cc(F)c(CNC(=O)c2cc(-c3ccc(C(F)(F)F)cc3)cc(NC(=O)C3CC3)n2)cc1F [Example I-074] , if possible.
100

Follow-up entry: CC(=O)Nc1cc(-c2ccc(C(F)(F)F)cc2)cc(C(=O)NCc2ccc(C#N)cc2)n1 [Example I-017]
100

Can you handle CCCCNC(=O)c1cc(-c2ccc(OC(F)(F)F)cc2)cc(NC(=O)C2CC2)n1 [Example I-113] next?
100

What do you get for C[C@H](NC(=O)c1cc(-c2ccc(OC(F)(F)F)cc2)cc(NC(=O)C2CC2)n1)c1ccc(C(F)(F)F)cc1 [Example I-061] ?
100

Then what about the compound O=C(NCc1ccccc1)c1cc(-c2ccc(OC(F)(F)F)cc2)cc(NC(=O)C2CC2)n1 [Example I-227] ?
100

Continue with O=C(NCc1ccc(Cl)c(F)c1)c1cc(-c2ccc(C(F)(F)F)cc2)cc(NC(=O)C2CC2)n1 [Example I-056]
100

====

assay: log P by HPLC on reversed-phase column (C 18), EEC Directive 79/831 Annex V.A8; type: physicochemical; details: log P, neutral range; HPLC on reversed-phase column (C 18), 55° C.
reported endpoint: LOGP_NEUTRAL
Enter a number only.

Below: 8 compounds and their reported LOGP_NEUTRAL.
> print(dat)
                                   compound  measurement
1  O=C(NCc1ccc([N+](=O)[O-])cc1)c1cc(-c2ccc(C(F)(F)C(F)(F)F)cc2)cc(NC(=O)C2CC2)n1 [Example I-196]         4.30
2  COC(=O)c1ccc(CNC(=O)c2cc(-c3ccc(OC(F)(F)F)cc3)cc(NC(=O)C3CC3)n2)cc1 [Example I-101]         3.97
3  CC(NC(=O)c1cc(-c2ccc(C(F)(F)F)cc2)cc(N(C(=O)C2CC2)C(=O)C2CC2)n1)c1ccc(C#N)cc1 (centres unmarked) [Example I-039]         4.31
4  O=C(NCc1ccc(-c2nnco2)cc1)c1cc(-c2ccc(OC(F)(F)F)cc2)cc(NC(=O)C2CC2)n1 [Example I-112]         3.37
5  N#Cc1ccc(CNC(=O)c2cc(-c3ccc(OC(F)F)cc3)cc(NC(=O)C3CC3)n2)cc1 [Example I-029]         3.21
6  O=C(NCc1ccc([N+](=O)[O-])cc1)c1cc(-c2ccc(OC(F)(F)F)cc2)cc(NC(=O)C2CC2)n1 [Example I-085]         3.97
7  N#Cc1ccc(CNC(=O)c2cc(-c3ccc4c(c3)OC(F)(F)O4)cc(NC(=O)C3CC3)n2)cc1 [Example I-154]         3.61
8  O=C(NCCCc1ccc(C(F)(F)F)cc1)c1cc(-c2ccc(C(F)(F)F)cc2)cc(NC(=O)C2CC2)n1 [Example I-058]         4.79

For the compound shown here, N#Cc1ccc(CNC(=O)c2cc(-c3ccc(C(F)(F)F)cc3)cc(NC(=O)c3ccc(Cl)cc3)n2)cc1 [Example I-023] , give the reported LOGP_NEUTRAL.
4.66

Another compound to check: O=C(NCCC(F)(F)F)c1cc(-c2ccc(OC(F)(F)F)cc2)cc(NC(=O)C2CC2)n1 [Example I-176]
3.83

What do you have for COC(=O)N(Cc1ccc(C#N)cc1)C(=O)c1cc(-c2ccc(OC(F)(F)F)cc2)cc(NC(=O)C2CC2)n1 [Example I-231] ?
4.43

Also N#Cc1ccc(CNC(=O)c2cc(-c3ccc(OC(F)(F)F)cc3)cc(NC(=O)C3CC3)n2)cc1F [Example I-080] , if possible.
3.87

Try this compound too: N#Cc1ccc(CNC(=O)c2cc(-c3ccc(C(F)F)c(F)c3)cc(NC(=O)C3CC3)n2)cc1 [Example I-222]
3.34

What do you get for CC(C)C(=O)Nc1cc(-c2ccc(OC(F)(F)F)cc2)cc(C(=O)NCc2c(F)cc(C#N)cc2F)n1 [Example I-070] ?
4.15
